Provide the recorded PBM binding z-score for the entries that follow.
test system: LXRb homodimer (NR concentration 270 nM); test: PBM binding z-score (relative to random genomic background probes); higher = stronger binding; sequences stand for … in GC…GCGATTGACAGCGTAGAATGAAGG
Hey, just send me the number, nothing else.

Q: Look at this sequence and give its reported PBM binding z-score. CCAGACAGGTGAGAAGATAACTCAGCCTCGATTA
A: -0.471

Q: Also GATACAGGGTCAGCTAGAGGCCAGGGTATGGAAA , if possible.
A: -0.476

Q: Also TCAGACAGGTGAAGATAACTCAGGTACGCAGTCG , if possible.
A: -0.112

Q: Also CCTTACGGGTCACTCCAGCTTATAGCATCGGAGT , if possible.
A: 0.0792

Q: Also GCTCGGAGGACAAGGTCAGAACTTTGTCCGTAGA , if possible.
A: -0.462

Q: Also TTACCCAGGTGAAAGGTCGTTGATGCACGCCTTG , if possible.
A: -0.247

Q: Also ACTAATAGTTGACTTAGGGCAACCGATACGACGC , if possible.
A: 0.352

Q: Also CCTAGCAGGGCAGGGTCACTCAAGCATTTCGCTT , if possible.
A: -1.22

Q: Also ATCTCTAGGTAAAGATAGTTCAATGAATGCAAAT , if possible.
A: 0.777

Q: Also CCTTACGGGTCACTCCCGGTTATAGCATCGGAGT , if possible.
A: 0.279

Q: Also TCATATAGGTAAAGGTGGAAGTCGAACGATATGA , if possible.
A: 0.0945

Q: Also TTACCAAGGTGAATGGTCGTTGATGCACGCCTTG , if possible.
A: -0.853

Q: Also ATCTCTAGGTAAGACTCATTTCAGTGAAGAACGC , if possible.
A: 0.888

Q: Also CGAACTAGGTCATCCAGGACTGTGAATACATTGA , if possible.
A: 0.107

Q: Also TCTTGTAGATCGACAGGAGGTTAAGAAAGATCGA , if possible.
A: -0.423

Q: Also TCTATTAGTGGAAGGGCAACCGACGAGTCCGTTT , if possible.
A: 0.57

Q: Also CGAACTAGGTCAAGGACAGTGATTCTCCGCACGC , if possible.
A: -0.542

Q: Also GCACACAGGTGAAACGCAGGTAACTCAGGGTGGC , if possible.
A: -0.845

Q: Also GATACAGGGTCAGCTAGAGGCCAGCGTATGGAAA , if possible.
A: -1.03

Q: Also TCATATAGGTAAAGGTGAAAGTGGAACGATATGA , if possible.
A: -0.406

Q: Also GCTGCTAGGTCAGGTTGGTCAGCAAACGGGTACG , if possible.
A: -0.114

Q: Also GGAACGCGGGCAAAGTTGATAGCATCTGTCGACG , if possible.
A: -0.943

Q: Also ACTCGGAGGACAAAGGTCAGAGCCACGCCAGTGA , if possible.
A: 0.161

Q: Also ACAGACAGGTAAGTGAAGGTAACTCAGCTGGACG , if possible.
A: -0.579

Q: Also CGAACTAGTTCATCCAGGACAGTGAATACATTGA , if possible.
A: -0.0526

Q: Also CCTCGGAGGACAACAGGAGGTCAGAGCCGCCAGA , if possible.
A: -0.539

----------
tested on: RXRa homodimer (NR concentration 180 nM); assay: PBM binding z-score (relative to random genomic background probes); higher = stronger binding; sequences stand for … in GC…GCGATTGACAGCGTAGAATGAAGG
Label Fulfilled when PBM binding z-score is at or above 1; anything below gets Not fulfilled.

Q: Hi, just wondering whether CCAGACAGGTTAGAAGGTAACTCAGCCTCGATTA shows PBM binding z-score of 1 or higher.
A: Not fulfilled

Q: Also CCTAGTTGGTCAAGGTCACAAACGCTATAGGTAC , if possible.
A: Fulfilled

Q: Also TCATTTAGGTAAACAGGTGAAAGTCCGTAAGTTA , if possible.
A: Not fulfilled

Q: Also TTACCAAGGTGAGCTGAGGTCGTTAATCCAACTC , if possible.
A: Fulfilled

Q: Also ATCTCTACGTAAAGATAGTTCAGTGAATGCAAAT , if possible.
A: Not fulfilled

Q: Also ACTATTAGTTGAGACGATGGCAACCGATAGGTTG , if possible.
A: Not fulfilled

Q: Also GCAGACAGGTGAAACGCAGGTCACTCAGGGTGGC , if possible.
A: Fulfilled

Q: Also CGTCAAAGTTCAACTCAGGTAACGTAAAGCACGC , if possible.
A: Fulfilled

Q: Also TCATATAGGTATTACAGGTGAAAGTCGGCATCTA , if possible.
A: Fulfilled

Q: Also CCTACTGGTCCATCAGGTCATTGATATCAACGTT , if possible.
A: Fulfilled

Q: Also TCTATTAGTTGATTAGGACAACCGAAACAGCGGA , if possible.
A: Not fulfilled

Q: Also ACTAGTTGGTCAGCTGAGGTCACCCACAATTCGG , if possible.
A: Fulfilled

----------
test system: PPARg DBDmut IVT, anti-PPARg (DBD mutation: PPARg1 K132A/R137A, NR concentration 270 nM); test: PBM binding z-score (relative to random genomic background probes); higher = stronger binding; sequences stand for … in GC…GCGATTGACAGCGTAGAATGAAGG
Provide the recorded PBM binding z-score for the entries that follow.
Hey, just send me the number, nothing else.

Q: Look at this sequence and give its reported PBM binding z-score. TCGGACAGGTGAAGGTAACTCAGGTACGCAGTCG
A: -0.574

Q: Also CAGCCTAGGTCAGGGCCGGTATAGGAGGAACGTT , if possible.
A: -1.19

Q: Also CATTACGGGTCACTCCAGGTTATAGCATCGGAGT , if possible.
A: 1.65

Q: Also CCTATTAGTTGACCATAAGGGCAATCGAAGCTCG , if possible.
A: 0.72

Q: Also CCTCGGAGGACAACAGGAGGTCTGAGCTGCCAGA , if possible.
A: -1.49

Q: Also GCTAGTTGGTCAGAAAAAGGTCACACACCGGTCG , if possible.
A: -0.0601

Q: Also CCTATCAGGCCAATCTGGGTCACTCAAGGCTTGA , if possible.
A: -0.095

Q: Also ATCTCTAGGTAAAGATAGTTCAGTGATTGCAAAT , if possible.
A: 1.85

Q: Also GTAGCAAGGTGAATAGGTCGTTGATGAGTAGGCG , if possible.
A: -1.04

Q: Also GCTTACGGGTCAAAGGTTATAGAATGAATAGAAT , if possible.
A: 1.09

Q: Also GATACAGGCTCAGCTAGAGGCCAGAGTATGGAAA , if possible.
A: -1.01

Q: Also TTACCAAGGTGAGCTGATGTCGTTGATCCAACTC , if possible.
A: 0.259

Q: Also CGAACTAGGTCAAGGACAGTGACTCTCCGCACGC , if possible.
A: 0.467

Q: Also ATCGAAAGGCCGAGGTGAGTATAGAGAAAGGGAA , if possible.
A: 0.0911

Q: Also CAAACTAGGTCACTGGAAGGTCAAAGTCCGCATG , if possible.
A: 2.9

Q: Also ATAATGAGGTTATACGTAGATCAGGGAAGAAAGT , if possible.
A: 2.05

Q: Also CGTCCAACGTCAAAGGTCAGTGAAGAGATGACGG , if possible.
A: -0.0246

Q: Also CAAACTAGGTCACGAAAGGTCGAAGTCGAATGAC , if possible.
A: 3.15

Q: Also TTACCAAGGTGAAAGGTGGTTGATGCACGCCTTG , if possible.
A: -0.258

Q: Also GGTTGTAGATCAAGGTTAAGAAAGACTAAGCTAA , if possible.
A: 0.177

Q: Also CCTTATGGGTCAAGGTTATAGCACGGGTGGTACG , if possible.
A: 0.531

Q: Also GCTGCTAGGTCAAATGATGGTCAGCTAAAGCTCG , if possible.
A: -0.751

Q: Also ATACCGAGGTGATCGTGAGGTCGTTGATACTAAC , if possible.
A: 1

Q: Also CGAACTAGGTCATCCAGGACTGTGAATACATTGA , if possible.
A: 2.3

Q: Also AATACAGGGTCATCGTAGGCGAGAGTACGCACAG , if possible.
A: 1.01

Q: Also CCTAGCAGGGCAATCTGGGTCACTCAAGGCTTGA , if possible.
A: -0.641

Q: Also TGAATGAGGTTATAAGATCTGGGAACGTTGCAAA , if possible.
A: -0.0307

Q: Also GTACCAAGGTGAATAGGTAGTTGATGAGTAGGCG , if possible.
A: 0.507

Q: Also TCTAGTTGGTCAAAGTTCACACACTCGAAATGCG , if possible.
A: 1.12

Q: Also CAAACTAGGTCAAGGACAGTGAATCTCCGCACGC , if possible.
A: 2.41

Q: Also TCTCGGAGGACACGAAAGTTCAGAGCTCGACATC , if possible.
A: -0.597

Q: Also CTCGAAAGGACGTGCTCAGGTGAGTATACCAAAC , if possible.
A: -0.179

Q: Also TAGCCTAGCTCATGGGCCAGTATACCACGCGAAC , if possible.
A: -0.524

Q: Also ACTATTAGTTGAGACGAGGACAACCGATAGGTTG , if possible.
A: 0.661

Q: Also CCTACTGGGCCAAGGGCATTGATCAGTCAAAGCA , if possible.
A: -1.53

Q: Also ACTAGCAGGCCAAGTTTGCGTCACTCAAACAAAG , if possible.
A: -0.27

Q: Also CCTAGCAGGACAATCTGGGTCACTCAAGGCTTGA , if possible.
A: -0.424

Q: Also ATCGAAAGGTCGTGAGGCGAGTATACAGAAAGGC , if possible.
A: 1

Q: Also TGACAAAGTTCAAAGGTAACGTAAGTATCCACAC , if possible.
A: 0.842

Q: Also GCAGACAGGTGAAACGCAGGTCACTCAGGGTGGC , if possible.
A: -0.0986
